What follows is a collection of MIC values obtained with Micrococcus luteus ATCC 9341.
Please reply with the bare figure in µg/mL and do not write the unit itself.

[[record]]
mol_smiles = "CC[C@H]1OC(=O)[C@H](C)C(=O)[C@H](C)[C@@H](O[C@@H]2O[C@H](C)C[C@H](N(C)C)[C@H]2O)[C@](C)(OCC#Cc2ccc(-c3cccc(C)c3)s2)C[C@@H](C)C(=O)[C@H](C)[C@H]2NC(=O)O[C@@]21C"
tgt = "Micrococcus luteus ATCC 9341"
recorded_metric = "MIC"
result_number = 0.02


Query: Enter reported MIC observed with Micrococcus luteus ATCC 9341 for CC[C@H]1OC(=O)[C@H](C)C(=O)[C@H](C)[C@@H](O[C@@H]2O[C@H](C)C[C@H](N(C)C)[C@H]2O)[C@](C)(OC/C=C/c2cncc(-c3cnc4ccccc4c3)c2)C[C@@H](C)C(=O)[C@H](C)[C@H]2NC(=O)O[C@@]21C
Result: 0.01

----------
- System: Streptococcus Pneumonia 5979
Sorting guide: entries reporting MIC beneath 1 µg/mL go in the Fulfilled pile, the rest go in the Not fulfilled pile.

Study these solved cases before continuing.
[[record]]
mol_smiles = "CC[C@H]1OC(=O)[C@H](C)C(=O)[C@H](C)[C@@H](O[C@@H]2O[C@H](C)C[C@H](N(C)C)[C@H]2O)[C@](C)(OCC#Cc2ccc(-c3ccsc3)s2)C[C@@H](C)C(=O)[C@H](C)[C@H]2NC(=O)O[C@@]21C"
class_label = "Not fulfilled"

[[record]]
mol_smiles = "CC[C@H]1OC(=O)[C@H](C)C(=O)[C@H](C)[C@@H](O[C@@H]2O[C@H](C)C[C@H](N(C)C)[C@H]2O)[C@](C)(OC/C=C/c2nc(-c3cccs3)cs2)C[C@@H](C)C(=O)[C@H](C)[C@H]2NC(=O)O[C@@]21C"
class_label = "Not fulfilled"


Query: Report whether reported MIC is lower than 1 µg/mL (strictly) for CC[C@H]1OC(=O)[C@H](C)C(=O)[C@H](C)[C@@H](O[C@@H]2O[C@H](C)C[C@H](N(C)C)[C@H]2O)[C@](C)(OC/C=C/c2ccc(-c3cccnc3)s2)C[C@@H](C)C(=O)[C@H](C)[C@H]2NC(=O)O[C@@]21C
Result: Fulfilled

Query: Is it true that MIC reported for CC[C@H]1OC(=O)[C@H](C)C(=O)[C@H](C)[C@@H](O[C@@H]2O[C@H](C)C[C@H](N(C)C)[C@H]2O)[C@](C)(OCC#Cc2ccc(-c3ccc(Cl)s3)s2)C[C@@H](C)C(=O)[C@H](C)[C@H]2NC(=O)O[C@@]21C is less than 1 µg/mL?
Result: Fulfilled

Query: Please state whether MIC is below 1 µg/mL for CC[C@H]1OC(=O)[C@H](C)C(=O)[C@H](C)[C@@H](O[C@@H]2O[C@H](C)C[C@H](N(C)C)[C@H]2O)[C@](C)(OC/C=C/c2cncc(-c3ncccn3)c2)C[C@@H](C)C(=O)[C@H](C)[C@H]2NC(=O)O[C@@]21C
Result: Not fulfilled

Query: Is MIC strictly under 1 µg/mL for the entry CC[C@H]1OC(=O)[C@H](C)C(=O)[C@H](C)[C@@H](O[C@@H]2O[C@H](C)C[C@H](N(C)C)[C@H]2O)[C@](C)(OC/C=C/c2cnc(-c3cccnc3)s2)C[C@@H](C)C(=O)[C@H](C)[C@H]2NC(=O)O[C@@]21C ?
Result: Not fulfilled
